meta.source: ChEMBL document CHEMBL1201862

- System: SF-268
- TEST DETAILS: NCI tumour cell line growth inhibition, 48 h
The source made the active and inactive calls. Rule as the data show it: active = GI50 up to about 1.1 µM and inactive = higher.
# key: entry, value: GI50

CC1OC(OC2C(OC(=O)[C@@H]3CC(C)(C)C[C@H]4C5=CC[C@@H]6[C@@]7(C)C[C@H](O)[C@H](OC8OC(CO)C(O)C(O)C8O)[C@@](C)(CO)[C@@H]7[C@H](O)C[C@@]6(C)[C@]5(C)CC[C@@]34C)OCC(O)C2O)C(O)C(O)C1O (stereo partly drawn); > 7.5 µM (inactive)

Lookup: GI50 / SF-268 / COc1ccc(/N=C(/SS/C(=N/c2ccc(OC)cc2)c2ccc([N+](=O)[O-])o2)c2ccc([N+](=O)[O-])o2)cc1
1.89 µM (inactive)

And what about the compound Cc1c2n(c(=O)[nH]c1=O)C1OC(CO)C(O2)C1N=[N+]=[N-] (stereo not drawn) ?
> 100 µM (inactive)

====

- Test system: DLD-1
- TEST DETAILS: NCI tumour cell line growth inhibition, 48 h
Where a name gives a salt, the structure may show the parent alone. Activity calls are given as the source filed them. Rule as the data show it: active = GI50 up to about 1.1 µM and inactive = higher.
Your response should consist of one outcome taken from YES (active), NO (inactive)

Examples from the recorded data:
CN(C)c1ccc(/C=C2\CCc3ccccc3C2=O)cc1Br; NO
C=CC1C(OC2OC(CO)C(O)C(O)C2O)OC=C(C(=O)OC)C1CC=O (stereo not given); NO
C[C@H]1CC(=O)C2=CCCC3(SCCCS3)[C@@H]2[C@H]1CO; NO
Nc1ccc2cc3ccc(N)cc3nc2c1 [PROFLAVINE SULFATE]; YES

Query: recorded result category for O=c1c2ccccc2c(=O)c2c1cc(Cl)c1[nH]c3c([nH]c12)c(Cl)cc1c(=O)c2ccccc2c(=O)c13 in this test
NO

====

# key: entry, value: GI50
- Tested on: SN12C
- TEST DETAILS: NCI tumour cell line growth inhibition, 48 h
Active and inactive are the calls of the source. No stated cut-off is given here; in the data, active = GI50 up to about 1.1 µM and inactive = higher.

Answered cases to consult:
COc1nc(N(C)C)nc2c1[n+](C)cn2C [HETEROMINE A]; 72.8 µM (inactive)
NP1(Oc2ccc(F)cc2)=NP(N)(Oc2ccc(F)cc2)=NP(Oc2ccc(F)cc2)(Oc2ccc(F)cc2)=N1 (stereo not drawn); 6.18 µM (inactive)
C=CC(OCC)(OCC)OCC; > 100 µM (inactive)
C=C1C(=O)OC2CC(C)C3C4OC4C(O)C3(C)C(O)C12 (stereo not drawn); 23 µM (inactive)
O=C1OC(=O)C2C1C(c1ccccc1[N+](=O)[O-])C=C(c1ccco1)N2c1ccncc1 (stereo not drawn); 8.95 µM (inactive)
CCOP(=O)(OCC)C(C)(CC)NC1=NC(C(F)(F)F)(C(F)(F)F)NC(=O)N1 (stereo not drawn); > 100 µM (inactive)
Cc1nc(-c2cccnc2)sc1C(=O)/C=C/c1ccc(Cl)cc1Cl; > 100 µM (inactive)

Lookup: GI50 / SN12C / Clc1cc(Cl)c2n[se]nc2c1
> 100 µM (inactive)

====

- Test system: MOLT-4
- TEST DETAILS: NCI tumour cell line growth inhibition, 48 h
Active and inactive are the calls of the source. Cut-off read from the data, not from the text of the source: active = GI50 up to about 1.1 µM and inactive = higher.
Your response should consist of one outcome taken from active, inactive

Query: recorded result category for COc1ccc(C2c3c(-c4ccccc4)nn(-c4ccccc4)c3Oc3ncn4nc(CC#N)nc4c32)cc1OC (stereo not given) in this test
inactive
